Data credit: ChEMBL document CHEMBL4184148

molecular target: Aurora kinase A (Homo sapiens); assay: Inhibition of Aurora A auto-phosphorylation in human HCT116 cells after 4 hrs by Western blot analysis
Sequence (O14965 whole entry): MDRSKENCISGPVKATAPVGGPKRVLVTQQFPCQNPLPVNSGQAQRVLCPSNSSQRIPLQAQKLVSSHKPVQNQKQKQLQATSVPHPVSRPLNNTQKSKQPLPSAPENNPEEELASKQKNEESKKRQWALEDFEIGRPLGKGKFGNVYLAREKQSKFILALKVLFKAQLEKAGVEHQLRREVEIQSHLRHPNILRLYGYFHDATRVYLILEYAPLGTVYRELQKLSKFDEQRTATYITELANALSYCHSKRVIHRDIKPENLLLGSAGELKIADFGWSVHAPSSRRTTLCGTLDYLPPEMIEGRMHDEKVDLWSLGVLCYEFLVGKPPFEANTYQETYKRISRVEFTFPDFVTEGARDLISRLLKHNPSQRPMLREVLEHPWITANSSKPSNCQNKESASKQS
measured-quantity: EC50 (nM)
Answer format: numeric, nM implied, no suffix.

State the recorded EC50 for this entry: CCC(=O)Nc1ccc(C(=O)Nc2ccc(Nc3ncc4c(n3)N(C)c3ccc(C)cc3C(=O)N4C)cc2)cc1
38

Next:
State the recorded EC50 for this entry: C=CC(=O)Nc1ccc(C(=O)Nc2ccc(Nc3ncc4c(n3)N(C)c3ccc(C)cc3C(=O)N4C)cc2)cc1
5.8

###

target: Aurora kinase B (Homo sapiens, UniProt Q96GD4); assay: Inhibition of recombinant full length His-tagged human Aurora B expressed in baculovirus expression system by Z'LYTE assay
Sequence (Q96GD4 whole entry): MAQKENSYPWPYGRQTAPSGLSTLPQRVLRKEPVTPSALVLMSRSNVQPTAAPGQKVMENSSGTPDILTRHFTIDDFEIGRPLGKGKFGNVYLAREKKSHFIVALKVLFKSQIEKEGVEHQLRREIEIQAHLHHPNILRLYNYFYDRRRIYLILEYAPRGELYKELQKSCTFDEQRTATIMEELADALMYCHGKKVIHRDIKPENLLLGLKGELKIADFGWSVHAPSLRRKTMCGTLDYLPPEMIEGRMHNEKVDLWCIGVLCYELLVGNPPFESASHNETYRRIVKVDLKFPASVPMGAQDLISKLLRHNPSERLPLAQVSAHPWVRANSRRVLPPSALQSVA
// reported IC50 for each item listed
Answer format: numeric, µM implied, no suffix.

Example compounds with recorded IC50:
State the recorded IC50 for this entry: CCOC(=O)c1[nH]cc2c1NC1=C(C(=O)CCC1)[C@H]2c1cccc(Oc2nc3ccccc3[nH]2)c1
0.034

State the recorded IC50 for this entry: CCC(=O)Nc1ccc(C(=O)Nc2ccc(Nc3ncc4c(n3)N(C)c3ccc(C)cc3C(=O)N4C)cc2)cc1
0.041

Lab note: next compound to report on.
State the recorded IC50 for this entry: C=CC(=O)Nc1ccc(C(=O)Nc2ccc(Nc3ncc4c(n3)N(C)c3ccc(C)cc3C(=O)N4C)cc2)cc1
0.029

###

biological target: Bromodomain-containing protein 4 (Homo sapiens); assay: Inhibition of BRD4 (unknown origin) by AlphaScreen assay
measured-quantity: pIC50
# reply with the number alone; pIC50 is -log10 of concentration in mol/L

State the recorded pIC50 for this entry: C=CC(=O)Nc1ccc(C(=O)Nc2ccc(Nc3ncc4c(n3)N(C)c3ccc(C)cc3C(=O)N4C)cc2)cc1
4.43

Lab note: next compound to report on.
State the recorded pIC50 for this entry: CCC(=O)Nc1ccc(C(=O)Nc2ccc(Nc3ncc4c(n3)N(C)c3ccc(C)cc3C(=O)N4C)cc2)cc1
4.47
